System: RSK4(Kin.Dom.1-N-terminal);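 further: KINOMEscan kinase panel screen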
Construct: gene RPS6KA6
MEASUREMENT CONTEXT: concentration: 1 μM, replicates: in singlicate; n = 1
// values below are reported %Inh
Report as a plain number; the unit % is understood.

Record excerpt, results attached:
Q: Note down %Inh recorded for C[C@@H](Oc1cc(-n2cnc3cc(-c4ccnc(NCCS(C)(=O)=O)c4)ccc32)sc1C(N)=O)c1ccccc1Cl
Result: 20

Q: Note down %Inh recorded for Nc1ncc(-c2ccc3nccc(-c4ccncc4)c3c2)cc1S(=O)(=O)N1CCOCC1
Result: 14

Q: Note down %Inh recorded for CCn1c(-c2nonc2N)nc2c(C#CC(C)(C)O)ncc(OCCCCN)c21.O=C(O)C(F)(F)F.O=C(O)C(F)(F)F
Result: 2

More entries:
Q: Note down %Inh recorded for Cl.NC(=O)c1cccc(Nc2nccc(Nc3ccc(Oc4c(Cl)cccc4Cl)c(Cl)c3)n2)c1
Result: 0

Q: Note down %Inh recorded for CN(c1ccc(NC(=O)Nc2cc(C(F)(F)F)ccc2F)cc1)c1ccnc(Nc2ccc(S(N)(=O)=O)cc2)n1
Result: 5

Q: Note down %Inh recorded for Oc1cc(Nc2ccnc3cc(I)ccc23)ccc1F
Result: 7

Q: Note down %Inh recorded for O=c1[nH]cc(-c2ccc(N3CCOCC3)cc2)c2sc(-c3cn[nH]c3)cc12
Result: 0

Q: Note down %Inh recorded for COc1cc(Nc2ncc3c(C)nc(-c4cc5ccccc5[nH]4)n3n2)cc(OC)c1OC
Result: 7

Entry source: paper PMC5540273
